# protocol-summary: AUC (0 to infinity) in New Zealand White Rabbit cornea at 0.1 mg per eye, TOP and measured upto 72 hrs by LC-MS/MS analysis
# Assay type: ADME, tissue-based, Oryctolagus cuniculus
# Design: time < 72 hrs, dose 0.1 mg, route top
# study-conditions: topical or ocular
quantity: AUC(0-inf) (ng·h/mL)
Record the value in ng·h/mL, omitting the unit from your answer.

Task: What value of AUC(0-inf) has been recorded for this entry: COc1ccc(-c2ccnc3cc(C(=O)N4CCN(C(=O)c5ccccc5)[C@@H](C)C4)nn23)cc1OC
Output: 35800

====

# protocol-summary: Cmax in New Zealand White Rabbit conjunctiva at 0.1 mg per eye, TOP and measured upto 72 hrs by LC-MS/MS analysis
# Type: ADME, tissue-based, Oryctolagus cuniculus
# Set-up: dose 0.1 mg, time < 72 hrs, route top
# study-conditions: topical or ocular
quantity: Cmax (ng/mL)
Record the value in ng/mL, omitting the unit from your answer.

Task: What value of Cmax has been recorded for this entry: COc1ccc(-c2ccnc3cc(C(=O)N4CCN(C(=O)c5ccccc5)[C@@H](C)C4)nn23)cc1OC
Output: 793
